All values here come from ChEMBL document CHEMBL3244266.

# System: Rattus norvegicus
# Method: Antiinflammatory activity against adjuvant-induced arthritis rat model assessed as inhibition of swelling at 25 mg/kg, po measured on day 14 (reference value: 0%)
# Format: functional
# Cond: 336 h
Catalogue of molecules with associated inhibition in vivo at 25 mg/kg

| Structure As Smiles | inhibition in vivo at 25 mg/kg |
| --- | --- |
| N#C/C=C(\N)c1ccccc1 | 39% |
| N#C/C=C(\N)c1cccs1 | 35% |
| N#CCC(=O)c1ccsc1 | 52% |
| N#CCC(=O)c1ccc(F)cc1 | 33% |
| N#C/C=C(\N)c1ccsc1 | 37% |
| N#CCC(=O)c1ccccc1F | 54% |
| N#CCC(=O)c1ccccc1 | 54% |
| N#C/C=C(\N)c1ccc(F)cc1 | 26% |

---

# System: Rattus norvegicus
# Method: Antiinflammatory activity against carrageenin-induced edema in rat
# Assay type: functional, organism-based
Active and inactive are the calls of the source. The rule behind the calls is not given here.
Outcome codes: yes = active, no = inactive

| Structure As Smiles | Class Label |
| --- | --- |
| N#CCC(=O)c1ccc(F)cc1 | no |
| N#CCC(=O)c1ccccc1F | no |
| N#C/C=C(\N)c1ccsc1 | no |
| N#CCC(=O)c1cccs1 | no |
| N#C/C=C(\N)c1ccccc1 | yes |
| N#CCC(=O)c1ccccc1 | no |
| N#C/C=C(\N)c1ccc(F)cc1 | no |
| N#CCC(=O)c1ccsc1 | no |
| N#C/C=C(\N)c1cccs1 | no |

---

inhibition in vivo at 50 mg/kg overview
# System: Rattus norvegicus
# Method: Antiinflammatory activity against adjuvant-induced arthritis rat model assessed as inhibition of swelling at 50 mg/kg, po measured on day 14 (reference value: 0%)
# Type: functional
# Cond: 336 h
Quantity Kind: inhibition in vivo at 50 mg/kg (%)

| Structure As Smiles | Unit Abbreviation | Test Value |
| --- | --- | --- |
| N#C/C=C(\N)c1ccsc1 | % | 48 |
| N#C/C=C(\N)c1cccs1 | % | 44 |
| N#CCC(=O)c1ccc(F)cc1 | % | 56 |
